outcome measure: melting point (°C)
Numbers only, in °C.

1) CN1CCN(c2nc3c(c(=O)[nH]2)CCCC3)CC1
210
2) O=c1[nH]c(-c2ccccc2F)nc2c1CCCC2
170
3) O=c1[nH]c(N2CCNCC2)nc2c1CCCC2
121
4) CCC1CCc2nc(-c3ccccc3)[nH]c(=O)c2C1 (stereo not shown) [formula 10b]
221
5) O=c1[nH]c(-c2ccccc2)nc2c1CCCC2
224

Record melting point per entry; entries follow.
1. CC1=Cc2c(nc(-c3ccccc3)[nH]c2=O)CC1 [formula 11a]
2. CSc1nc2c(c(=O)[nH]1)C=CCC2

[reply]
[218, 214]

---

outcome measure: melting point
Put down the number, then write its unit next to it.

Recorded results for 3 compounds are shown here.
1) O=c1[nH]c(-c2ccc(Cl)cc2)nc2c1CCCC2
255 °C
2) CCC1=Cc2c(nc(-c3ccccc3)[nH]c2=O)CC1 [formula 11b]
198 °C
3) CC1CCc2nc(-c3ccccc3)[nH]c(=O)c2C1 (stereo not shown) [formula 10a]
237 °C

Let us move to another entry and its melting point.
[ask] Could you tell me which melting point is on file for `O=c1[nH]c(-c2ccccc2F)nc2c1C=CCC2` ?
[reply] 191 °C

---

outcome measure: melting point

Check out these entries, answers already filled in.
1) O=c1[nH]c(-c2ccc(Cl)cc2)nc2c1C=CCC2 [formula 6b]
> 250 °C
2) CN1CCN(c2nc3c(c(=O)[nH]2)CC(S(=O)(=O)c2ccccc2)CC3)CC1 (stereo not drawn) [formula 13c]
> 250 °C

Turning now to a further compound:
[ask] Quick check: melting point of O=c1[nH]c(N2CCN(Cc3ccccc3)CC2)nc2c1CC(S(=O)(=O)c1ccccc1)CC2 (stereo not drawn) [formula 13b] ?
[reply] > 250 °C
